Assignment: determine reported inhibition at 1 µM for the given molecules.
# studyTarget: PKA (Homo sapiens)
# Construct: purchased Upstate (Charlottesville, Va.)
# test: Broad selectivity panel, 32P incorporation
# Assay type: biochemical
# details: 1 μM compound, 40 μM ATP; read-out: Percent inhibition PKA
The answer is to be given in %; state only the numeric part.

Query: inhibition at 1 µM; subject: Fc1ccc(-c2nc3occn3c2-c2ccnc(N[C@H]3CN4CCC3CC4)n2)cc1 [LXXXVII]
-6

Likewise for CN1[C@@H]2CC[C@H]1C[C@@H](Nc1nccc(-c3c(-c4ccc(F)cc4)nc4occn34)n1)C2 [CCLXXXI] ?
-2

Quick one: Fc1ccc(-c2nc3occn3c2-c2ccnc(N[C@@H]3CN4CCC3CC4)n2)cc1 [LXXI]
11

Continue with CS(=O)(=O)N1CCC(Nc2nccc(-c3c(-c4ccc(F)cc4)nc4occn34)n2)CC1 [CCLXXIX]
-2

One more molecule: Fc1ccc(-c2nc3occn3c2-c2ccnc(NC3CCNCC3)n2)cc1 [CCLXXX]
11

Same lookup for CC(=O)N1CCC(Nc2nccc(-c3c(-c4ccc(F)cc4)nc4occn34)n2)CC1 [CCLXXVIII] , please.
10

Could you do the same for CN(C)CC(C)(C)CNc1nccc(-c2c(-c3ccc(F)cc3)nc3occn23)n1 [CXIX] , please?
-8
